target: Neuronal acetylcholine receptor; alpha9/alpha10 (Homo sapiens) (UniProt Q9UGM1+Q9GZZ6); test: Antagonist activity at human wild type alpha9alpha10 nAChR expressed in acetylcholine-induced Xenopus laevis oocytes assessed as inhibition of acetylcholine-induced current at 30 nM by two electrode voltage-clamp assay relative to control; type: cell-based; conditions: Oocyte
OBSERVED_PROPERTY: inhibition

SUBSTANCE	inhibition
H-ARYRSPYDRRRRYRRITD-NH2	20%
H-GRYRSPYDRRRRYRDDTD-NH2	0%
H-GRYRSPYARRRRYRRITD-NH2	20%

Entry H-GRYRSPYDRRRRDRRITD-NH2 : reported inhibition = ?
0%

Look up inhibition for this substance: H-GRYRSPYDRDRRYRRITD-NH2
0%

Report inhibition for H-DRYRSPYDRRRRYRRITD-NH2 please.
0%

// inhibition lookup, key: H-GRYRSPYDRRRRYRRITA-NH2
20%

So what's the measured inhibition for this one? H-RRYRSPYDRRRRYRRITD-NH2
10%

Requested read-out: inhibition. Entry: H-GAYRSPYDRRRRYRRITD-NH2
20%
